# protocol-summary: Cytotoxicity against human MT4 cells by MTT assay
# Format: cell-based
Parameter CC50: see the listing below.
Field: numeric (µM). Do not append units.

The following molecules have reported results that may help.
structure | unit-abbreviation | CC50
Cc1ccccc1C(=O)N(C(=S)OCCN1C(=O)c2ccccc2C1=O)c1ccc(Cl)cc1 | µM | 21
Cc1cccc2c1C(=O)N(CCOC(=S)N(C(=O)c1cccc([N+](=O)[O-])c1)c1ccc(Cl)cc1)C2=O | µM | 44
O=C1c2ccccc2C(=O)N1CCOC(=S)N(C(=O)c1ccc(Cl)c([N+](=O)[O-])c1)c1ccccc1 | µM | 51
O=C1c2ccccc2C(=O)N1CCCOC(=S)N(C(=O)c1cccc([N+](=O)[O-])c1)c1ccc(Cl)cc1 | µM | 53
O=C1c2ccccc2C(=O)N1CCOC(=S)N(C(=O)c1ccc(F)cc1F)c1ccc(Cl)cc1 | µM | 52

## Task Name the recorded CC50 of the item Cc1ccc(N(C(=O)c2ccc([N+](=O)[O-])cc2Cl)C(=S)OCCN2C(=O)c3ccccc3C2=O)cc1 in your answer.
## Result 17

## Task Name the recorded CC50 of the item O=C1c2ccccc2C(=O)N1CCOC(=S)N(C(=O)c1cc(F)cc(F)c1)c1ccc(Cl)cc1 in your answer.
## Result 59

## Task Name the recorded CC50 of the item O=C1c2ccccc2C(=O)N1CCOC(=S)N(C(=O)c1cccc([N+](=O)[O-])c1)c1c(Cl)cccc1Cl in your answer.
## Result 58

## Task Name the recorded CC50 of the item Cc1ccc(N(C(=O)c2c(F)cccc2F)C(=S)OCCN2C(=O)c3ccccc3C2=O)cc1 in your answer.
## Result 65

## Task Name the recorded CC50 of the item O=C1c2ccccc2C(=O)N1CCOC(=S)N(C(=O)c1ccc([N+](=O)[O-])cc1Cl)c1ccc(Cl)cc1 in your answer.
## Result 19

====

# protocol-summary: Cytotoxicity against human MT4 cells by MTT assay
# Format: cell-based
# note: boundary value 40 µM maps to Not met; CC50 below it maps to Met

Completed entries (count: 8):
molecule | group-label
O=C1c2ccccc2C(=O)N1COC(=S)N(C(=O)c1cccc([N+](=O)[O-])c1)c1ccc(Cl)cc1 | Not met
O=C1c2ccccc2C(=O)N1CCOC(=S)N(C(=O)c1ccco1)c1ccc(Cl)cc1Cl | Not met
Cc1ccc(N(C(=O)c2cccc(C)c2)C(=S)OCCN2C(=O)c3ccccc3C2=O)cc1 | Not met
CC(CN1C(=O)c2ccccc2C1=O)OC(=S)N(C(=O)c1cccc([N+](=O)[O-])c1)c1ccc(Cl)cc1 (racemic) | Met
Cc1ccc(N(C(=O)c2c(Cl)cccc2Cl)C(=S)OCCN2C(=O)c3ccccc3C2=O)cc1 | Met
Cc1ccc(C(=O)N(C(=S)OCCN2C(=O)c3ccccc3C2=O)c2ccc(C)cc2)cc1 | Not met
O=C1c2ccccc2C(=O)N1CCOC(=S)N(C(=O)c1cc(Cl)cc(Cl)c1)c1ccc(Cl)cc1 | Met
O=C1c2ccccc2C(=O)N1CCOC(=S)N(C(=O)c1cccc2ccccc12)c1ccc(Cl)cc1 | Met

## Task CC50 strictly < 40 µM for this molecule? Cc1cccc(C(=O)N(C(=S)OCCN2C(=O)c3ccccc3C2=O)c2ccc(Cl)cc2)c1
## Result Not met

## Task CC50 strictly < 40 µM for this molecule? O=C1c2ccccc2C(=O)N1CCOC(=S)N(C(=O)c1ccc(Br)cc1)c1ccc(Br)cc1
## Result Not met
